# TEST TARGET: hA2a receptors (Homo sapiens)
# Construct: purchased Receptor Biology, Inc. (USA); host or cells: HEK293 cells
# Sequence (P29274 whole entry): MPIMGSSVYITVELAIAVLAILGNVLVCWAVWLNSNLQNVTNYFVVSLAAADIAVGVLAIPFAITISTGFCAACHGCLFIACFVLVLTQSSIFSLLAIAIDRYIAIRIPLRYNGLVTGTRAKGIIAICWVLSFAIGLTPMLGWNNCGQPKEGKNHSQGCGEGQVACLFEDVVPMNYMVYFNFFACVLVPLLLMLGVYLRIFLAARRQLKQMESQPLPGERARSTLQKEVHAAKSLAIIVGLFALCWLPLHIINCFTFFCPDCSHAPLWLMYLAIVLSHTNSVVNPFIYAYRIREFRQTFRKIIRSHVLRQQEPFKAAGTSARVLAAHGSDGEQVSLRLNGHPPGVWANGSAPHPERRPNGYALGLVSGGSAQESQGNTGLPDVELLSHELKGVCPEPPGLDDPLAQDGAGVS
# RUN DESCRIPTION: Adenosine receptor subtype competition radioligand binding assay, hA2a
# EXPERIMENTAL CONTEXT: membranes from hA2a receptors transfected to HEK293 cells, [3H]ZM241385 as radioligand, 90 min at 25° C.; read-out: A2a Antagonism (Ki nM)
MEASUREMENT TYPE: Ki (nM)

Some compounds with known Ki results, for comparison:
[
  {
    "COMPOUND": "N#Cc1sc(NC(=O)[C@@H]2CCC[C@H](C(=O)O)C2)nc1-c1ccccc1Cl (relative stereo) [Example 26]",
    "Ki (nM)": 3670
  },
  {
    "COMPOUND": "N#Cc1sc(NC(=O)[C@H]2CC[C@@H](C(=O)O)CC2)nc1-c1ccccc1 [Example 10]",
    "Ki (nM)": 1080
  }
]

A = N#Cc1sc(NC(=O)[C@@H]2CCC[C@H](C(=O)O)C2)nc1-c1cccc(F)c1 (relative stereo) [Example 75]
B = N#Cc1sc(NC(=O)[C@H]2CC[C@@H](C(=O)O)CC2)nc1-c1cccc(F)c1 [Example 77]
Pick the one with the larger Ki: A vs B // respond with label for picked entry
A
(A: 1840 nM, B: 776 nM)

1 = N#Cc1sc(NC(=O)[C@H]2CC[C@H](C(=O)O)CC2)nc1-c1cccc(Cl)c1 [Example 36]
2 = N#Cc1sc(NC(=O)C2CCC(C(=O)O)C2)nc1-c1ccccc1 (centres unmarked) [Example 5]
Min Ki? 1 | 2 Use the label to indicate which entry you chose.
1

* * *

# TEST TARGET: hA1 receptors (Homo sapiens, UniProt P30542)
# Construct: purchased Receptor Biology, Inc. (USA); host or cells: CHO cells
# Sequence (P30542 whole entry): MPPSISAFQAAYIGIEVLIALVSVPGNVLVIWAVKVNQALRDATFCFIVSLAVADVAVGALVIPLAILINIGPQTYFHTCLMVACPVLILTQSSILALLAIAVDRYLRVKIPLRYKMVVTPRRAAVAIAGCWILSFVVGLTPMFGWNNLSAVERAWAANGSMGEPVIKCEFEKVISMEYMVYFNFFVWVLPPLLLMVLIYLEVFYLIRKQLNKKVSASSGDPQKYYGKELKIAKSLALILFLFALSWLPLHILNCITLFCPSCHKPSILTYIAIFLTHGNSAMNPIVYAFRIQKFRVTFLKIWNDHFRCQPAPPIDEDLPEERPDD
# RUN DESCRIPTION: Adenosine receptor subtype competition radioligand binding assay, hA1
# EXPERIMENTAL CONTEXT: membranes from hA1 receptors transfected to CHO cells, [3H]-DPCPX as radioligand, 90 min at 25° C.; read-out: A1 Antagonism (Ki nM)
MEASUREMENT TYPE: Ki (nM)

A = N#Cc1sc(NC(=O)[C@H]2CC[C@H](C(=O)O)CC2)nc1-c1cccc(Cl)c1
B = CC(C)(CCC(=O)O)C(=O)Nc1nc(-c2cccc(F)c2)c(C#N)s1
C = N#Cc1sc(NC(=O)[C@@H]2CC[C@H](C(=O)O)C2)nc1-c1ccccc1F (relative stereo)
D = N#Cc1sc(NC(=O)[C@H]2CC[C@@H](C(=O)O)CC2)nc1-c1ccccc1
Using the list above, order everything by rising Ki. Reply with the labels, ordered as the question asks.
D, C, A, B
(D: 7 nM, C: 16 nM, A: 25 nM, B: 51 nM)

I = N#Cc1sc(NC(=O)[C@@H]2CCC[C@H](C(=O)O)C2)nc1-c1ccccc1 (relative stereo)
II = CC(C)(CCC(=O)O)C(=O)Nc1nc(-c2ccccc2)c(C#N)s1
III = N#Cc1sc(NC(=O)[C@H]2CC[C@@H](C(=O)O)CC2)nc1-c1cccc(F)c1
Order each entry by recorded Ki, climbing from the minimum. Provide your answer as the labels ordered per the instruction.
III, I, II
(III: 6 nM, I: 17 nM, II: 43 nM)

A = N#Cc1sc(NC(=O)[C@@H]2CCC[C@H](C(=O)O)C2)nc1-c1ccccc1Cl (relative stereo)
B = N#Cc1sc(NC(=O)[C@@H]2CCC[C@H](C(=O)O)C2)nc1-c1cccc(F)c1 (relative stereo)
Which of the two gives a bigger number for Ki: A or B ? // return label of chosen record
A

I = N#Cc1sc(NC(=O)[C@@H]2CCC[C@H](C(=O)O)C2)nc1-c1cc(F)cc(F)c1 (relative stereo)
II = N#Cc1sc(NC(=O)C2CCC(C(=O)O)C2)nc1-c1ccccc1 (centres unmarked)
// max by Ki over [ I , II ] Which one? Tell me its label.
I
